Values were extracted from patent US10202353B2.

# method.description: Test B: Cytotoxicity Assay
# Assay type: cell-based
# applied.conditions: human, uninfected MT4 cells, same protocol as Test A
assay.metric: CC50 at 5 days (µM)
Answers are plain numbers, in µM.

smiles | CC50 at 5 days [µM]
CN(C(=O)[C@H](Cc1ccccc1)NC(=O)Cn1nc(C(F)(F)F)c2c1CCCC2)c1ccccc1 | 23.5

Provide reported CC50 at 5 days for each item, in the same order as listed.
1. CN(C(=O)[C@H](Cc1ccccc1)NC(=O)Cn1nc(C(F)(F)F)c2c1CCCCC2)c1ccccc1
2. CN(C(=O)[C@H](Cc1cccc([N+](=O)[O-])c1)NC(=O)Cn1nc(C(F)(F)F)c2c1CCCC2)c1ccccc1
3. CN(C(=O)[C@H](Cc1ccsc1)NC(=O)Cn1nc(C(F)(F)F)c2c1CCCC2)c1ccccc1

**Result**
[22.2, 19.2, 25]
